subject of test: T1, ROR1 naturally expressed on human tumor cell lines (A549, Jeko-1, SW620, PA-1) (human, UniProt Q01973 30-937)
T1 construct: whole, on cells; also called cells expressing ROR1
experiment notes: FACS on A549 cells naturally expressing ROR1
value kind: EC50 (nM)
Your answer is read as nM, so omit the unit and give the number.

Query string: For the binder ch137G11D10 (antibody, human IgG1, kappa, V domains shown, also called chimeric antibody of m137G11D10) VH: DVQLQESGPGLVKPSQSLSLTCTVTGYSITSDYAWNWIRQFPGNKLEWMGYITYSASTSYNPSLKSRISITRDTSKNQFFLQLNSVTTEDTATYYCARGAGTYYFDYWGQGSTLTVSS VL: DIVLTQSPASLSVATGEKVTIRCITSTDIDEDMNWYQQKPGEPPKLLISEDNSLRPGVPSRFSSSGYGTDFVLTIENTLSEDVADYYCLQTNNLPLTFGAGTKLEIKR , give its measured EC50 value.
Result string: 0.02
